PROPERTY LABEL: intrinsic clearance, human liver microsomes (mL/min/kg)

| CPD SMILES | COMPARISON SIGN | RESULT NUMBER |
| --- | --- | --- |
| CC(C)(C)c1csc(CCNC(=O)N2CCSCC2)n1 | = | 127 |
| COc1ccc(-n2cc3c(c2-c2ccccc2Br)c(=O)n(C)c(=O)n3C)cc1 | = | 37.5 |
| O=c1c(-n2ccnn2)c[nH]n1-c1cc(N2CCOCC2)ncn1 | ≤ | 4.74 |
| c1ccn2cc(CSc3ccc(-n4cccn4)nn3)nc2c1 | = | 18.6 |
| COc1ccc(CN2CCC(c3nc(C(C)C)no3)CC2)c(F)c1 | = | 35 |
| O=C(NCCc1cnn(-c2ccccc2)c1)N1CCC1 | ≤ | 4.74 |
| CC(=O)N1CCCN(Cc2c(C)nn(C)c2Cl)CC1 | = | 11.6 |
| CCN(C(=O)N1CCC(CC(=O)N2CCN(C)CC2)CC1)C(C)C | = | 23.9 |
| Cc1nn(CCC#N)c(C)c1Oc1ccccc1O | ≤ | 4.74 |
| CNc1ncc(CN(C)CCN2CCCCC2)cn1 | = | 6.66 |
| O=C(CCc1ccco1)Nc1ccccc1OC(F)F | = | 116 |
| N#Cc1cnc2cc(F)cc(F)c2c1NC1CCN(CC(N)=O)CC1 | ≤ | 4.74 |

----------
PROPERTY LABEL: log10(intrinsic clearance, human liver microsomes) (log10 of the value in mL/min/kg)

| MOLECULE | RESULT NUMBER |
| --- | --- |
| Cc1ccc(NC(=O)[C@H]2COc3ccccc3O2)nc1 | 2.27 |
| COc1ccc(OC)c(C(=O)/C=C/c2ccccc2)c1 | 2.21 |
| CNC(=O)c1ccc(N2CCCC2)nc1 | 1.65 |
| CCOC1CCN(c2ccnc(C(=O)NCc3ccccc3)c2)CC1 | 1.26 |
| c1ccc(-c2ccc(Cn3ccnc3-c3cc4n(n3)CCCNC4)cc2)cc1 | 1.17 |
| Cc1cc2c(s1)c1cnn(Cc3ccccc3F)c(=O)c1n2C | 2.51 |
| Cc1cccnc1NC(=O)Cc1coc2c(C)c(C)ccc12 | 2.09 |
| Cc1ccnc2[nH]c(CSCc3ccccc3)nc12 | 1.93 |
| CC(C)Oc1ccc(C2(C(=O)NC3CCS(=O)(=O)CC3)CCCC2)cc1 | 1.20 |
| OCCn1cc(-c2ccc3c(c2)CC/C3=N\O)c(-c2ccncc2)n1 | 0.96 |
| NC1CCCC(C(=O)Nc2ccc3[nH]ncc3c2)C1 (configuration not stated) | 1.10 |
| O=C(C1CC1)N1CCCC(C(=O)N2CCc3ccccc3C2Cc2ccccc2)C1 (configuration not stated) | 2.81 |
| O=C(Nc1ccccc1-n1ccnc1)c1cccs1 | 1.04 |
| CCCn1ncc(CN2CCC(c3cc4cccnc4[nH]3)CC2)c1C | 1.62 |
| COCCOc1cnc2ccn([C@H](C)c3nnc4c(F)cc(-c5cnn(C)c5)cn34)c(=O)c2c1 | 0.79 |
| c1ccc(Cc2cccc3cc4c(nc23)OCCNC4)cc1 | 1.39 |
| Cc1cc(-n2nc(C)cc2N)nc(C)n1 | 1.77 |
| Cc1ccc(S(=O)(=O)Nc2ccc3c(c2)c2c(n3S(=O)(=O)c3ccc(C)cc3)CCC2)cc1 | 2.36 |
| Cc1cc(C(=O)Nc2c(C)nn(C(C)C)c2C)c2ccc(F)cc2n1 | 0.83 |
| C[C@@H](CN1CCC(n2c(=O)[nH]c3cc(Cl)ccc32)CC1)NC(=O)c1ccc2ccccc2c1 | 2.02 |
| CCOc1ccccc1CNCCc1c[nH]c2ccccc12 | 2.10 |
| CC(c1nnc(-c2cccs2)o1)N1CCC(n2c(=O)[nH]c3ccccc32)CC1 (configuration not stated) | 1.26 |
| CC1CN(C(=O)c2cccnc2N2CCOCC2)CC(c2ccccc2)O1 (configuration not stated) | 1.56 |
| C=CC(=O)N1CCC[C@H](n2c(=O)n(-c3ccc(Oc4ccccc4)cc3)c3c(N)ncnc32)C1 | 2.22 |
| CC(C)n1cc(-c2ccc3c(c2)N(C)CC3)c2c(NS(=O)(=O)c3ccn(C)n3)ccnc21 | 1.84 |
| O=C(c1cc(-c2cccc(Cl)c2)on1)N1CCC(n2cccc2)CC1 | 1.19 |
| CN(C)C1(CNC(=O)Cn2ccc(=O)cc2)CCCCC1 | 0.72 |
| CC(=O)Nc1ccc(C(=O)Nc2cc(-c3cccs3)ccc2N)cc1 | 0.98 |
| c1ccc(-n2ncc3c(-n4ccnc4)ncnc32)cc1 | 1.20 |
| CNCc1cc(N(C)C)nc(C2CCCN2C(=O)CCc2c[nH]c3ccccc23)n1 (configuration not stated) | 1.70 |
| COc1ccc(C2(NCc3cnn(-c4ccccc4)c3)CCCC2)cc1 | 1.91 |
| Fc1cccc2c1CN(Cc1c[nH]nc1-c1cccnc1)CC2 | 1.97 |
| O[C@@H]1CO[C@H]2C[C@@H]1Nc1c(Cc3ccccc3)cccc12 | 1.53 |

----------
# CONDITION LABEL: pH 6.8

| CPD SMILES | READING UNIT | aqueous solubility |
| --- | --- | --- |
| CCCCCCCC/C(=C\CCCCCCCC(=O)O)[N+](=O)[O-] | µg/mL | 12.7 |
| CCN(CC#N)C(=O)c1nn(-c2ccc(F)cc2)c2c1CCCC2 | µg/mL | 40.5 |
| Cc1ccc(-c2nc(NCc3ccco3)ncc2-c2cc(C)no2)cn1 | µg/mL | 10.3 |
| O=C(NC[C@@H]1CCN(c2ccccc2)C1)N1CCc2ccccc2C1 | µg/mL | 11.9 |
| Cc1ccc2c(c1)C(=O)CC1(CCN(C(=O)c3ccc4nc(C)cc(O)c4c3)CC1)O2 | µg/mL | 20.2 |
| O=c1[nH]c2ccccc2n1C1CCN(c2ncnc3sccc23)CC1 | µg/mL | 4.25 |
| Cc1ccc2cc(C(=O)N(C)CCC#N)[nH]c2c1 | µg/mL | 4 |
| COc1ccc2ccccc2c1CNC(=O)c1cnc(C2CC2)nc1 | µg/mL | 5.12 |
| CCOc1ccc(Nc2ncccc2C#N)cc1 | µg/mL | 9.23 |
| Cc1cccc(N(C)C(=O)COC2CCCC2)n1 | µg/mL | 59.6 |
| CN(C)c1cnn(CCC(C#N)(c2ccccc2)c2ccccc2)c(=O)c1 | µg/mL | 22.2 |

----------
| CPD SMILES | MDR1-MDCK efflux ratio |
| --- | --- |
| Cc1ncc(CN2CC[C@@H](Nc3cncc(Cl)n3)[C@@H](C)C2)s1 | 0.974 |
| CC(C)n1cnnc1SCOCc1ccccc1 | 0.711 |
| COC(=O)C1=NOC2(CCN(CCCCCF)CC2)C1 | 0.463 |
| CC(=O)N1CCN([C@H]2CCN(C(=O)c3cc4cc(C)ccc4o3)CC[C@@H]2O)CC1 | 38.8 |
| Cc1nc(Cl)cc(Nc2ccc3c(c2)N(C)C(=O)CO3)n1 | 0.746 |
| O=C(NCc1ccc(F)cc1)c1ccccn1 | 0.543 |
| Fc1cncc(-c2cnc(NCc3ccc(Cl)c(F)c3)nc2)c1 | 0.339 |
| COc1ccc(CC(=O)Nc2ccc(F)nc2)cc1 | 0.624 |
| c1ccc(-n2cc(CNc3ncccn3)cn2)cc1 | 0.497 |
| O=C(Nc1ccc(F)cc1)c1cc(C2CC2)nn1-c1ccccc1 | 0.314 |
| COc1cc2nc(/C=C/c3cocn3)sc2cc1OC | 0.504 |
| COc1cccc(-c2nc(-c3cccnc3)n[nH]2)c1 | 0.698 |

----------
// values below are reported intrinsic clearance, rat liver microsomes
PROPERTY LABEL: intrinsic clearance, rat liver microsomes (L/h/kg)

| MOLECULE | READING UNIT | COMPARISON SIGN | RESULT NUMBER |
| --- | --- | --- | --- |
| O=C(C1CC1)N1CCC(CNS(=O)(=O)N2CCCCCC2)CC1 | L/h/kg | = | 79.4 |
| O=C(NCCCNC(=O)c1cc2ccccc2[nH]1)c1ccc2c(c1)OCCO2 | L/h/kg | = | 17 |
| Cc1cc(C)n(-c2ccc(CNC(=O)C3CCC3)cn2)n1 | L/h/kg | = | 34.3 |
| Cc1ccc(Cn2nc(C(=O)N[C@@H]3C(C)(C)[C@@H]4CC[C@@]3(C)C4)cc2-c2ccc(Cl)c(C)c2)cc1 | L/h/kg | = | 40.6 |
| C[C@@H](CN1CCC(n2c(=O)[nH]c3cc(Br)ccc32)CC1)NC(=O)[C@@H]1C[C@H]1c1ccccc1 | L/h/kg | = | 34.5 |
| c1ccc(NCc2ccc3c(c2)OCCCO3)nc1 | L/h/kg | = | 426 |
| CCC(=O)Nc1ccc(F)c(NC(=O)N2CC=C(C)CC2)c1 | L/h/kg | = | 4.11 |
| O=C1N=C2C=CC=CN2C12Cc1ccccc1C2 | L/h/kg | ≤ | 0.64 |
| O=C1Oc2nc3cc4c(cc3cc2CN1CCN1CCOCC1)OCO4 | L/h/kg | = | 1.73 |
| Cc1ccc(C(=O)Nc2ccccc2-c2ccccc2)o1 | L/h/kg | = | 30.2 |
| Cc1ccc(Nc2ccnc(Nc3ccc(C)cc3)n2)cc1 | L/h/kg | = | 28.6 |
| Cc1nc(N2CCc3c(ncn3C)C2)c2c(C)c(C)sc2n1 | L/h/kg | = | 39.3 |
| O=C1NCCSc2c1sc1ccc(O)cc21 | L/h/kg | = | 5.71 |
| CN(Cc1nc(N)c2ccccc2n1)Cc1ccc(F)cc1F | L/h/kg | = | 118 |
| COCC1(CNC(=O)c2cc(Cl)cnc2O)CCC1 | L/h/kg | = | 28.5 |
| CN(Cc1cnn(C)c1)c1ncnc2c1oc1ccccc12 | L/h/kg | = | 30.3 |
| Cc1cc(OCc2ccnc(Cl)c2)nnc1C | L/h/kg | = | 3.09 |
| O[C@@H]1CCCC[C@H]1N1CCC(c2ccccc2)CC1 | L/h/kg | = | 83.3 |
| Cc1oc(C)c(C(=O)Nc2ccn(C)n2)c1C | L/h/kg | = | 5.62 |
| Cn1cncc1CCNC(=O)[C@H]1CC1(C)C | L/h/kg | ≤ | 0.64 |
| CN(CC1CCCC1)C(=O)Nc1ccccc1N1CCOC1=O | L/h/kg | = | 32.4 |
| CC(=O)N[C@H]1CC2(CCN(C(=O)COc3cc(C)c(Cl)c(C)c3)CC2)OC[C@]1(C)O | L/h/kg | = | 9.96 |
| O=C(C1CC1)N1CCCC(C(=O)N2CCc3ccccc3C2Cc2ccccc2)C1 (centres undefined) | L/h/kg | = | 263 |
| Cc1ccc(F)cc1S(=O)(=O)Nc1ccc(C(=O)N2CCCC2)cc1 | L/h/kg | = | 369 |
